Property: clearance; scope: individual compounds
# measurement.notes: In vivo rat clearance assay (i.v.)
# conditions.used: plasma, iv, i.v. via jugular vein

| compound | clearance |
| --- | --- |
| COc1ccc(C(=O)N[C@@H](C)C(=O)N2CCC[C@H]2C(=O)N[C@H](C=O)CC(=O)O)cc1 | 50 to 80 mL/min/kg |

## Input Value lookup for clearance; key = CC[C@H](NC(=O)c1cc(Cl)c(O)c(Cl)c1)C(=O)N1CCC[C@H]1C(=O)N[C@H](C=O)CC(=O)O [Example 20m]
## Output < 50 mL/min/kg

## Input Further, for COc1c(C)cc(C(=O)N[C@@H](C)C(=O)N2CCC[C@H]2C(=O)N[C@H](C=O)CC(=O)O)cc1C [Example 122d] ?
## Output 50 to 80 mL/min/kg

## Input For CS(=O)(=O)CC[C@H](NC(=O)c1nccc2ccccc12)C(=O)N1CCC[C@H]1C(=O)N[C@H](C=O)CC(=O)O [Example 20h] then?
## Output 50 to 80 mL/min/kg

## Input How about this compound: C[C@H](NC(=O)c1nccc2ccccc12)C(=O)N1CCC[C@H]1C(=O)N[C@H](C=O)CC(=O)O
## Output < 50 mL/min/kg

## Input Next compound up: COc1c(Cl)cc(C(=O)N[C@@H](C)C(=O)N2CCC[C@H]2C(=O)N[C@H](C=O)CC(=O)O)cc1Cl [Example 122c]
## Output > 80 mL/min/kg

## Input Now the same for CC(=O)Nc1ccc(C(=O)N[C@@H](C)C(=O)N2CCC[C@H]2C(=O)N[C@H](C=O)CC(=O)O)cc1Cl [Example 122f]
## Output < 50 mL/min/kg

## Input And then C[C@H](NC(=O)c1ccc(N)c(Cl)c1)C(=O)N1CCC[C@H]1C(=O)N[C@H](C=O)CC(=O)O [Example 122b] , what is it?
## Output 50 to 80 mL/min/kg

## Input Okay, and Cc1cc(C(=O)N[C@H](C(=O)N2CCCC2C(=O)N[C@H](C=O)CC(=O)O)C(C)C)cc(C)c1O (stereo partly drawn) ?
## Output > 80 mL/min/kg
